// provenance: patent US5185347A

experiment: Toxicity (oral LD50); conditions: in vivo, orally administering, species not given
QUANTITY_NAME: LD50

{"columns": ["COMPOUND", "LD50"],
 "data": [
  ["CCOC(=O)C(Cc1ccc2[nH]c(SCCN3C(C)(C)CCCC3(C)C)nc2c1)NC(C)=O (stereo not drawn)", "> 1000 mg/kg"],
  ["COc1ccc2nc(SCCN3C(C)(C)CCCC3(C)C)[nH]c2c1", "> 1000 mg/kg"]
]}

Here is another compound to look at.
Give the value of LD50 reported for the following: CCOC(=O)C(Cc1ccc2[nH]c(SCCN3C(C)(C)CCCC3(C)C)nc2c1)NC(=O)c1ccc(Cl)cc1 (stereo not drawn)
> 1000 mg/kg
